# protocol_text: Study B: 17-AAG pharmacokinetics in subcutaneous interstitial fluid (tissue cages, HPLC)
# Type: in vivo
# condition_summary: both sexes, dog, subcutaneous interstitial fluid, iv, 150 mg/m2, Study B, dogs, subcutaneous interstitial fluid, 1st administration of 150 mg/m^2 IV, mean ± SD; read-out: AUC 0–47.5 h

[
  {
    "compound_structure_string": "C=CCNC1=C2C[C@@H](C)C[C@H](OC)[C@H](O)[C@@H](C)/C=C(\\C)[C@H](OC(N)=O)[C@@H](OC)/C=C\\C=C(/C)C(=O)NC(=CC1=O)C2=O",
    "AUC(0-t) (ng·h/mL)": 7380
  }
]
